- STUDY_TARGET: furin, P09958;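 note: purified furin at 1:10 enzyme:substrate in 50 mM HEPES pH 7.5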
- Sequence (P09958 whole entry): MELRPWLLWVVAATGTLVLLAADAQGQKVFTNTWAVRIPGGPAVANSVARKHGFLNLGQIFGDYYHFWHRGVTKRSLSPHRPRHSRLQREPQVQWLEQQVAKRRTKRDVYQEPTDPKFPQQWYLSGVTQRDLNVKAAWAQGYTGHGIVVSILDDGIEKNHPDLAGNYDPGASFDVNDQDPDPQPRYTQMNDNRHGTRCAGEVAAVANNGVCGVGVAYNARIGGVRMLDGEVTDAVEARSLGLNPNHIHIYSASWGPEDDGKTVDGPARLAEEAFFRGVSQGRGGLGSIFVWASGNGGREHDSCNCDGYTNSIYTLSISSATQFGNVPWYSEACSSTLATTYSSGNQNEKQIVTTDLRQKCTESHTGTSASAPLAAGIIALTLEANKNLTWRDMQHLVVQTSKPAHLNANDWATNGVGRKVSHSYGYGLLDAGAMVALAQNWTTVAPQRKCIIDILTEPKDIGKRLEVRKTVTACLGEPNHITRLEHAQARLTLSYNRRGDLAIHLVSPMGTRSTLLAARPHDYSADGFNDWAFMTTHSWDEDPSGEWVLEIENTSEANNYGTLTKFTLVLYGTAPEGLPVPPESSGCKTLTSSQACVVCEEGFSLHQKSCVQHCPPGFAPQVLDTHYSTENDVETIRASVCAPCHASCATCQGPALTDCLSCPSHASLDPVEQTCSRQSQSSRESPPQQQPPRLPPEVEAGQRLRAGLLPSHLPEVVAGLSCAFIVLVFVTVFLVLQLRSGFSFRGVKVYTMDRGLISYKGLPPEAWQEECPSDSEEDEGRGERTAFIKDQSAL
- ASSAY_REMARKS: furin cleavage Z-score vs untreated control; higher = more cleavage, active = 3.5 or more, inactive = 1 or less, 8 variable residues between constant flanks
- CONDITION_LABEL: 15 min
Some of the results follow. No count for the full screen is at hand.
I would appreciate it if you labelled entries yes (1) when furin cleavage Z-score is 6 or higher, otherwise no (0).

Some solved cases for reference:
INSERT INTO measurements (residues, cat) VALUES
  ('CARRHRARRAAGNASASA [FS-1265]', 'yes (1)'),
  ('CALNRRRRREAGNASASA [FS-355]', 'yes (1)');

Challenge: I'd appreciate it if you could say whether CAMEECSCHLAGNASASA [HC1740] has furin cleavage Z-score at least equal to 6.
Response given: no (0)

Challenge: Please answer likewise for CARRKKEVRKAGNASASA [FS-2449]
Response given: no (0)

Challenge: Please answer likewise for CALHGRRRREAGNASASA [FS-456]
Response given: yes (1)

Challenge: Please answer likewise for CALLGPADGMAGNASASA [HC666]
Response given: no (0)

Challenge: Please answer likewise for CAYKVLVLNPAGNASASA [HC785]
Response given: no (0)

Challenge: Please answer likewise for CASTPCSALLAGNASASA [HC2545]
Response given: no (0)

Challenge: Please answer likewise for CAVFARHLREAGNASASA [FS-921]
Response given: yes (1)

Challenge: Please answer likewise for CALQVLDSHYAGNASASA [HC1399]
Response given: no (0)

Challenge: Please answer likewise for CAEDPCHRPSAGNASASA [HC2331]
Response given: no (0)

Challenge: Please answer likewise for CARRHRATRKAGNASASA [FS-1266]
Response given: yes (1)

Challenge: Please answer likewise for CARRNRRRREAGNASASA [FS-494]
Response given: yes (1)

Challenge: Please answer likewise for CARKTRARRAAGNASASA [FS-489]
Response given: yes (1)

Challenge: Please answer likewise for CAVSAEEYVEAGNASASA [HC1203]
Response given: no (0)

Source listed as the supplement of paper PMC3545927.
